# EC50 listing for each entry below
- tested.system: human CB2 receptor (hCB2) (Homo sapiens, UniProt P34972)
- Construct: host or cells: CHO-K1
- Sequence (P34972 whole entry): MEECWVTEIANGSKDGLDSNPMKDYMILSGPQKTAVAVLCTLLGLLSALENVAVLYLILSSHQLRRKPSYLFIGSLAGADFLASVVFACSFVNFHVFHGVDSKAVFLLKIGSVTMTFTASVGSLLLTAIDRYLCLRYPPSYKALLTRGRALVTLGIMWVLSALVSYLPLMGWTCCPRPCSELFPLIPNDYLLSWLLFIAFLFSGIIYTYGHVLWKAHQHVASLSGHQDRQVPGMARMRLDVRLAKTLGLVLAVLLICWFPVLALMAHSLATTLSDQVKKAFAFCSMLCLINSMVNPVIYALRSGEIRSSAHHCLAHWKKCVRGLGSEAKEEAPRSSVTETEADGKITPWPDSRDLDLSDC
- test.name: cAMP assay (LANCE TR-FRET) in CHO-K1 cells stably expressing hCB2
- Format: cell-based
property: EC50

INSERT INTO measurements (compound, obs_value) VALUES
  ('CNC(=O)[C@@H](NC(=O)c1nc(-c2ccccc2)n2c1CCOCC2)C(C)(C)C', '10 to 100 nM'),
  ('CNC(=O)[C@@H](NC(=O)c1nc(-c2ccc(F)c(F)c2)n2c1CN(C)C(C)CC2)C(C)(C)C (single isomer, unassigned)', '10 to 100 nM'),
  ('CNC(=O)[C@@H](NC(=O)c1nc(-c2ccc(F)c(F)c2)n2c1CCCC2)C(C)(C)C', '0.1 to 10 nM'),
  ('CNC(=O)[C@@H](NC(=O)c1nc(-c2ccc(F)c(F)c2)n2c1COCCC2)C(C)(C)C', '10 to 100 nM'),
  ('CCS(=O)(=O)N1CCc2c(C(=O)N[C@H](C(=O)NC)C(C)(C)C)nc(-c3ccccc3)n2CC1', '> 10000 nM'),
  ('O=C(N[C@@H]1c2ccccc2C[C@H]1O)c1nc(-c2ccc(F)c(F)c2)n2c1CCCCC2', '10 to 100 nM'),
  ('CNC(=O)[C@@H](NC(=O)c1nc(-c2ccc(F)c(F)c2)n2c1CN(C)CC(C)(C)C2)C(C)(C)C', '10 to 100 nM'),
  ('O=C(N[C@H]1c2ccccc2C[C@H]1O)c1nc(-c2ccc(F)c(F)c2)n2c1CCCCC2', '0.1 to 10 nM');
